target: Protein translocase subunit SecA (Escherichia coli (strain K12)); test: Assay to Identify E. coli SecA ATPase Inhibitors; format: functional; parameters: scale not given: direction of the effect not stated beside the values; conditions: 30 µM
Potency and affinity values are given separately.
measurement name: Percent Effect (%)
One number for each entry, in %.

Could you report Percent Effect for every entry in the following list?
1. O=C(COCC1CC1)N1CCCC(n2cccn2)C1 (centres undefined)
2. COc1ccc(Cl)cc1NCC(=O)NCCc1ccccn1

[-2.32, -3.56]

Parameter requested: Percent Effect. Apply to each item below.
1. CCc1nc(C2CCCN2CC(=O)Nc2c(C)nn(C)c2C)no1 (centres undefined)
2. COc1cccc2cc(CNCc3ccnc(N4CCOCC4)c3)oc12
3. CC(C)CCOCCNC(=O)Nc1cc(C(F)(F)F)c[nH]c1=O
4. O=C(NCCc1ccccn1)C1=NN(c2ccccc2)C(=O)CN1
5. CCOc1nnc(CNC2CCCN(c3ccc(C)nn3)C2)s1 (centres undefined)
6. COc1ccc(CN2C[C@@H]3CCCO[C@@H]3[C@H](NS(C)(=O)=O)C2)cc1
7. Cc1nccc(CNC(=O)NCCOc2ccc(F)c(F)c2)n1
8. N#Cc1cccc(NC(=O)N[C@H](CO)c2ccccc2)c1

1. -2.75
2. -5.63
3. -7.54
4. 0.741
5. -2.75
6. 0.295
7. -4.87
8. -2.38

Look up Percent Effect for the entries below, preserving their order.
1. CCOc1ccccc1C(=O)NS(=O)(=O)c1ccc2c(c1)OCCCO2
2. NC(=O)C1CCN(C(=O)NCc2ccccc2Cn2cncn2)CC1
3. COc1ccc(C2Nc3ccccc3C3=NCCCN32)cc1OC (centres undefined)

1: -5.62; 2: -3.59; 3: -5.46

# batch size: 5; output Percent Effect per entry
1. CCn1ccnc1CN1CCN(CC(=O)NC(C)(C#N)C2CC2)CC1 (centres undefined)
2. Cc1ncsc1C(=O)NC1CCN(CC(=O)NCc2ccccc2)CC1
3. CCN(CC)CCNC(=O)c1cc(C(C)C)nc(N2CCCC2)n1
4. CN(C)CC1CN(c2ncnc3[nH]ccc23)CCO1 (centres undefined)
5. O=C(NCC1CC1)C1=NOC2(CCN(Cc3ccc4c(c3)OCO4)C2)C1 (centres undefined)

1: 1.69; 2: -3.36; 3: -0.4; 4: -5.15; 5: -4.9

====

Exercise: for every item that follows, state its recorded Percent Effect.
target: Protein translocase subunit SecA (Escherichia coli (strain K12)) (UniProt P10408); assay: Assay to Identify E. coli SecA ATPase Inhibitors; format: functional; set-up: scale not given: direction of the effect not stated beside the values; settings: 30 µM
Sequence (P10408 whole entry): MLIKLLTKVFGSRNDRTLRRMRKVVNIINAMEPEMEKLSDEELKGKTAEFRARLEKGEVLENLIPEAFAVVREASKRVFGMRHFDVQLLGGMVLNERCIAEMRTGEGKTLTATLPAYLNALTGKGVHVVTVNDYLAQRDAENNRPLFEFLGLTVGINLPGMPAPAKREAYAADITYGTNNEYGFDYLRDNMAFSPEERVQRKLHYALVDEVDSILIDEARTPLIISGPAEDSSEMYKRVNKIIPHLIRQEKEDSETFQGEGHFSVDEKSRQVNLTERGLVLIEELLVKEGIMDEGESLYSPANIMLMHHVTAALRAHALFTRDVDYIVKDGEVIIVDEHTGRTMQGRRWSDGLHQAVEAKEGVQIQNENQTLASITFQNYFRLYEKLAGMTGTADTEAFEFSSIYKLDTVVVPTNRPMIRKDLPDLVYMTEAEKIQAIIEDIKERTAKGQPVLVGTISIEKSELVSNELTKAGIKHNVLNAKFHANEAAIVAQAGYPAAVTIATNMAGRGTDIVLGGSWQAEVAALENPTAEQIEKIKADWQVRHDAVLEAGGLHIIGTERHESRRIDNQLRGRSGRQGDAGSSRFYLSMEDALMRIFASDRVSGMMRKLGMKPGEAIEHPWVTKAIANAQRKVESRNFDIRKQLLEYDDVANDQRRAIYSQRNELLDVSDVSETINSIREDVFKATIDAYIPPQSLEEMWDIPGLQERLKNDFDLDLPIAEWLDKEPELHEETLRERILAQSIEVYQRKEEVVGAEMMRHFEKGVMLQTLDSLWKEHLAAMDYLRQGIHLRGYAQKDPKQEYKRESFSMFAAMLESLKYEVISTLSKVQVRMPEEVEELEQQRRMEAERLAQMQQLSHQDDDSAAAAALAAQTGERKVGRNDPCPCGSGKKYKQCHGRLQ
Potency and affinity values are given separately.
Numbers only, in %.

Guide cases for Percent Effect, answers given:
COc1ncccc1C(=O)N1CCN(C(=O)Cc2ccccn2)CC1 : -1.65
Cc1cccc(CNCc2c(C(C)C)nn(C)c2N2CCOCC2)n1 : -1.17
CCOCCN1CCN(Cc2cccc(C(=O)N(C)C)c2)CC1 : -10.3

# return Percent Effect for each item in the list
1. Cc1cnn(C2CN(CC(O)c3ccc(F)cc3)C2)c1 (centres undefined)
2. O=C(CCc1cc(O)no1)N1CCCC(COc2ccc(F)cc2)C1 (centres undefined)
3. CNC(=O)CCc1cc(C)nc(C2CCCN2)n1 (centres undefined)
4. CC(Cn1cccn1)NCc1nc(-c2cccc(Cl)c2)no1 (centres undefined)
5. CCOC(=O)C1CCCN(c2ccc(-c3nc(C)no3)cn2)C1 (centres undefined)
6. CC(=O)N1CCN(c2cc(-c3ccccc3)nc3c(C)c(C)nn23)CC1
7. Cc1ccsc1CNC(=O)NC1CCCc2c1cnn2CCO (centres undefined)

1: 1.74; 2: -4.75; 3: -2.12; 4: -2.57; 5: -4.99; 6: -6.15; 7: -6.41

====

Assign Percent Effect to each entry below.
biological target: Ubiquitin-activating enzyme e1, putative (Leishmania donovani (strain BPK282A1)) (UniProt E9BSI1); assay: Leishmania donovani Ubiquitin Activating Enzyme (LdE1); assay type: functional; parameters: scale not given: direction of the effect not stated beside the values; conditions: 30 µM
Sequence (E9BSI1 as listed by the source): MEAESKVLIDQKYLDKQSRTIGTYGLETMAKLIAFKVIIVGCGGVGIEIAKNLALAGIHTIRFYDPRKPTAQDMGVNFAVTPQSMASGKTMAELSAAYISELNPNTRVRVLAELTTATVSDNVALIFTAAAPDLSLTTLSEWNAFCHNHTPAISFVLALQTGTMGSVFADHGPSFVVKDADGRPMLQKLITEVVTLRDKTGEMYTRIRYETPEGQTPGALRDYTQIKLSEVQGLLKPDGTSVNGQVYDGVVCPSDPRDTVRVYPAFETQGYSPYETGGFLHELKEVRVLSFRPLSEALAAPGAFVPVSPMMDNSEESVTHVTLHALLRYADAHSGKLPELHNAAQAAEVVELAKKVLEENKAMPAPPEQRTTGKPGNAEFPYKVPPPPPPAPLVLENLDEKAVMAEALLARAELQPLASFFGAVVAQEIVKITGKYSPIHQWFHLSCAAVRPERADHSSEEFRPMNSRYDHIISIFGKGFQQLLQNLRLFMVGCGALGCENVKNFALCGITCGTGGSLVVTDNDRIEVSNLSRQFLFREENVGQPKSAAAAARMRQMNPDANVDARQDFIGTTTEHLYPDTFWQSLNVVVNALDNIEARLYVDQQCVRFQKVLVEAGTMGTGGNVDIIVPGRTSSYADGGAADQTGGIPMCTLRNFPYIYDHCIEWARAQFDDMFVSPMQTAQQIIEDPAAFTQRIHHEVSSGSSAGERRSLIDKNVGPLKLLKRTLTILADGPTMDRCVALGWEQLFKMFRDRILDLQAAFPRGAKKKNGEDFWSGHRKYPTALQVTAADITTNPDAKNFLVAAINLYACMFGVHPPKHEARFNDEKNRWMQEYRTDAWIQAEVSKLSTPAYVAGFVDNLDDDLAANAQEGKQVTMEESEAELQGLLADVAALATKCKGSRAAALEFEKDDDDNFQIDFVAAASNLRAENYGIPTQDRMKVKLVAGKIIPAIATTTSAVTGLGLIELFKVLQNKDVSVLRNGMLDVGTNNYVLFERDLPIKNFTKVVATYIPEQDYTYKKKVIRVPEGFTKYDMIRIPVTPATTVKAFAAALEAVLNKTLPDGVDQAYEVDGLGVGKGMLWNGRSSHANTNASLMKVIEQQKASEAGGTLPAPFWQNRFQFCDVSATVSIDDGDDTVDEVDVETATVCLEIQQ
Measured potencies and affinities stand elsewhere.
Answers are plain numbers, in %.

CC(CNCc1ccncc1)Oc1ccccn1 (stereo not drawn) : 9.33

List reported Percent Effect for each of these compounds:
1. CC(=O)N1CC(Cc2nccc3ccn(C)c23)C1
2. O=C(Cn1cnc(-c2ccccc2)cc1=O)Nc1ccncc1
3. CCc1ccccc1-n1nnc(C(=O)O)c1-c1ccccn1
4. Cc1ccc(-c2nc(CN3CCOC(c4ccccc4)C3)cs2)o1 (stereo not drawn)
5. CCN(CC1CCOC1)C(=O)c1ccccc1N1CCOCC1 (stereo not drawn)
6. COc1ncccc1NC(=O)N(Cc1ccc(C)o1)C1CC1
7. CN(Cc1ccccc1)C1(C(=O)O)Cc2ccccc2C1

24
20.8
13.2
-24.3
23.7
13
2.67

====

Assign Percent Effect to each entry below.
biological target: Ubiquitin-activating enzyme e1, putative (Leishmania donovani (strain BPK282A1)) (UniProt E9BSI1); assay: Leishmania donovani Ubiquitin Activating Enzyme (LdE1); assay type: functional; parameters: scale not given: direction of the effect not stated beside the values; settings: 30 µM
Entries with a potency or affinity are not part of this list.
Answers are plain numbers, in %.

Completed entries (count: 6):
Cc1nnc2n1CCN(Cc1ncc(-c3ccc(Cl)cc3)o1)C2 : -18.4
O=C(c1cnoc1)N1CCC[C@]2(C[C@@H](OCc3ccccn3)CO2)C1 : 21.9
Cc1ccc(CN2CCOC3(CCCN(C(=O)c4ccco4)C3)C2)s1 (centres undefined) : 15.6
COCCN1CCC(NCc2ccc(C#N)cc2)C1 (centres undefined) : 0
Cc1[nH]c(=O)[nH]c(=O)c1CN1CCCC(CCc2c(F)cccc2F)C1 (centres undefined) : 8.11
CCn1cnnc1CNC(=O)N(C)Cc1ccc2c(c1)OCCO2 : -16.2

I'm hoping you can list Percent Effect for every compound here, please.
1. CCc1n[nH]c(C2CN(C(=O)c3cc4c(s3)CCCC4)CCO2)n1 (centres undefined)
2. O=C(CN1CCCC1Cn1cncn1)NC(C1CC1)C1CC1 (centres undefined)
3. COc1ccccc1OCCC(=O)N1CCCC1Cn1cc(C)cn1 (centres undefined)
4. OC1(CN2CCCC2)CCCN(Cc2ccc(F)cc2Cl)C1 (centres undefined)

[20.2, -1.39, 13, 0]

// each listed compound needs a value for Percent Effect
1. CCn1ncnc1C(C)NC(=O)C1CCN(C(C)C)CC1 (centres undefined)
2. Cc1oc(C)c(C(=O)NCc2cccnc2N(C)C)c1C
3. O=C(CN1CCCC1Cn1cncn1)NCCOc1cccc(F)c1 (centres undefined)
4. NC(=O)COc1cccc(C(=O)N2CCCC(n3ccnc3)C2)c1 (centres undefined)
5. COc1c(CNC2CCN(C(C)(C)C)CC2)c(C(C)C)nn1C
6. COc1ccc(CN2CCCCC2CNC(=O)OC(C)(C)C)cc1F (centres undefined)
7. O=C(NCCc1ccncc1)C1CCN(Cc2ccco2)CC1

1: 5.41; 2: 13.2; 3: 0; 4: 0; 5: 10.5; 6: 0; 7: -2.67

Dear colleague, could you please provide Percent Effect for the compounds listed below?
1. O=C1[C@H]2CC[C@H](CN(S(=O)(=O)c3ccccc3)C2)N1Cc1cscn1
2. O=C(CCc1ccccn1)N1CCc2cc(Cl)cc(Cl)c2C1
3. Cc1cnn(CC2CCCN2c2nn3cc(C)nc3s2)c1 (centres undefined)
4. CCc1ncc(CN(C)C(=O)Nc2cccnc2N2CCCC2)s1
5. O=C(NCCNc1ccc(C(F)(F)F)cn1)c1cncc(Br)c1
6. Cc1csc(CCCNC(=O)[C@H]2CNC[C@@H](C(=O)N3CCCC3)C2)n1

1. 5.48
2. 7.79
3. 11.4
4. 13.2
5. 15.6
6. 8.22

The reported Percent Effect of the compound O=C1CC(N(C(=O)c2ccc3c(c2)CCC3)C2CC2)C(=O)N1 (centres undefined) was 7.59

====

Provide the recorded Percent Effect for the entries that follow.
Molecular target: Proteasome subunit beta (Trypanosoma cruzi) (UniProt O96673)
Sequence (whole entry): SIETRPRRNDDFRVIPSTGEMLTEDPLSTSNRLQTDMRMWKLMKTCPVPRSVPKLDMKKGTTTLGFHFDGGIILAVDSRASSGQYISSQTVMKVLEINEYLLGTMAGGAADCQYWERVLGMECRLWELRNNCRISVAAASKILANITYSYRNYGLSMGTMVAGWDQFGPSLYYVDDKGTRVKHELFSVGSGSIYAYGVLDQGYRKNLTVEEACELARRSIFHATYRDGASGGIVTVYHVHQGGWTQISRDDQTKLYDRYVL
Test: Trypanosoma cruzi proteasome chymotrypsin-like activity (TcProtChymo) assay. Further: in the data most compounds retested in dose-response had high values.
Format: functional
Set-up: scale not given: direction of the effect not stated beside the values
Conditions: 9.37 µM
One number for each entry, in %.

Worked examples follow.
CCC(C)(NCC(=O)Nc1nc(C)cs1)c1nc(C)cs1 (configuration not stated) : 7.47
CCn1cc(C(=O)NCc2csc(Br)c2)cn1 : 7.72
CC(C)n1ccnc1CN1CCCN(C(=O)COC2CCCC2)CC1 : 4.29
CNC(=O)Nc1cc(-c2ccccc2C)nn1CCO : 17.2
c1ccc(CN2CCCC(c3nccnc3-n3ccnc3)C2)cc1 (configuration not stated) : 14.5
Cn1cc(C2CCCN2Cc2csc(C(C)(C)C)n2)cn1 (configuration not stated) : 4.01

List the reported Percent Effect of each molecule below.
1. CCCc1nnsc1C(=O)NCC1CCN(c2ccccn2)CC1
2. Cc1noc(CCCC(=O)NC(C)c2cccnc2)n1 (configuration not stated)
3. Cn1nc(C2CCCN(Cc3ccsc3)C2)c2nccnc21 (configuration not stated)
4. Cc1ccc(CN2CCc3ncc(CNS(C)(=O)=O)n3CC2)o1
5. COc1ccccc1S(=O)(=O)Nc1ccc2c(C(=O)O)c[nH]c2c1
6. Cc1cc(NC(=O)NCc2ccccn2)n(C)n1

1. 21.3
2. 8.86
3. 4.68
4. 15.3
5. 8.28
6. 15.6
